Values compiled from the supplement of paper PMC9170038.

System: K4 kissing-loop RNA reporter
Assay: apparent KD of K4 kissing-loop reporter; higher = weaker reporter binding
Conditions: Eterna round: R107; input ligand: FMN 200 uM
quantity-kind: apparent KD of K4 kissing-loop reporter

Look up K4 kissing-loop RNA reporter data: apparent KD of K4 kissing-loop reporter of AUGUCUUAUAAACUCAUGGUUUCGACAGAUACCAGCUUCGAGAGGAGCCCUUGGCAGCUGCAUGAGUGAUGUUCAUGUACGAAGA [KL-XTheoA6] , then report it.
370 nM

# assay system K4 kissing-loop RNA reporter: give apparent KD of K4 kissing-loop reporter of AUUAUAAAGACGGCCGCCACUGAGAGUAGUGAUGUUACUCUUUUCCUUUAGAUAUUAUAUUUUAUCAGGACCGGGUUUUUUGAUU [JR_Nu_ExcTryptoB_Sub025]
97.3 nM

Return reported apparent KD of K4 kissing-loop reporter for target or system K4 kissing-loop RNA reporter, item UUGCCCGAUGGAGAUACCAGCAGUUGUGCAGUGAUGUUGCACAAGUACUCGCUCCAUUGCUGCCCUUGGCAGCUCCCGGCGAAAA [Reoraren] .
95.9 nM

// output apparent KD of K4 kissing-loop reporter; input AGUGACGUCGCGGCCGCCACUGAAAUGACAGUGAUGUUGUCAAAAGAAAGUGAUGUUAAGAAAUGCAGGACCGGGUGAUAGAAAA [semi-accidental] ; system K4 kissing-loop RNA reporter
223 nM

Write down measured apparent KD of K4 kissing-loop reporter (K4 kissing-loop RNA reporter) for this sequence. GGUGCUGUCUGUGCCGCCCUCCUCGUCCCUCGAGGACCGGUACGGCCGCCACUCGAGUGAUGUUCGGGUAGCCCUCCCUGCCAGC [BDazzled - #21 Exc. Tryptophan A]
493 nM

Enter apparent KD of K4 kissing-loop reporter (test system K4 kissing-loop RNA reporter) for AAAAUUAAGGCCGAAUAAACUUAUUUCAUACGAGGACCGGUACGGCCGCCACUCGAGUCAAGUGAUGUUUGACUAUCUAUUAUUA [JR_ExcTryptoA_Sub009];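 also: bound reporter read as fluorescence of individual clusters on recovered sequencing chips by microscopy, with normalized cluster intensities fitted with a binding model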
61.4 nM
